B1: PDZK1 (parent)
chain: RETASLKLLPHQPRIVEMKKGSNG

# Variants of: B1
# assay-details: protein stability index of a GFP-peptide fusion (GPS, HEK-293T) (PSI 1-6); higher = more stable;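 further: lentivirally expressed fusions sorted by FACS into six bins by GFP to DsRed ratio, PSI derived from sequencing read proportions per bin multiplied by bin number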
# study-conditions: c terminus: a fixed tail appended
Classification field: true (1) = protein stability index at or over 4; false (0) = protein stability index under 4.

Input line: Could you tell me if the measured protein stability index of RETASLKLLPMQPRIVEMKKGSNG [H11M] reaches 4 or more?
Output line: false (0)

Input line: Could you tell me if the measured protein stability index of RETASLKLLPHQIRIVEMKKGSNG [P13I] reaches 4 or more?
Output line: false (0)

Input line: Could you tell me if the measured protein stability index of RETASLKLLPHQPRIVEMKKGQNG [S22Q] reaches 4 or more?
Output line: false (0)

Input line: Could you tell me if the measured protein stability index of LETASLKLLPHQPRIVEMKKGSNG [R1L] reaches 4 or more?
Output line: false (0)

Input line: Could you tell me if the measured protein stability index of RETASLKLLPHQPRIVEMKKGSYG [N23Y] reaches 4 or more?
Output line: false (0)

Input line: Could you tell me if the measured protein stability index of RETASLKLLPHQPRIVEMKKGSNY [G24Y] reaches 4 or more?
Output line: false (0)

Input line: Could you tell me if the measured protein stability index of WETASLKLLPHQPRIVEMKKGSNG [R1W] reaches 4 or more?
Output line: false (0)

Input line: Could you tell me if the measured protein stability index of RETASLKLLPHQPRIVNMKKGSNG [E17N] reaches 4 or more?
Output line: true (1)

Input line: Could you tell me if the measured protein stability index of RETASLKLLPFQPRIVEMKKGSNG [H11F] reaches 4 or more?
Output line: false (0)

Input line: Could you tell me if the measured protein stability index of RETASLKLLVHQPRIVEMKKGSNG [P10V] reaches 4 or more?
Output line: false (0)

Input line: Could you tell me if the measured protein stability index of RETASLKLLPHQPRIHEMKKGSNG [V16H] reaches 4 or more?
Output line: true (1)

Input line: Could you tell me if the measured protein stability index of RETASLKLLPHQLRIVEMKKGSNG [P13L] reaches 4 or more?
Output line: true (1)

Input line: Could you tell me if the measured protein stability index of RETASIKLLPHQPRIVEMKKGSNG [L6I] reaches 4 or more?
Output line: false (0)

Input line: Could you tell me if the measured protein stability index of RETASLKLLPHQPRIVEMKKYSNG [G21Y] reaches 4 or more?
Output line: false (0)

Input line: Could you tell me if the measured protein stability index of RETASLKLLPHNPRIVEMKKGSNG [Q12N] reaches 4 or more?
Output line: false (0)

Input line: Could you tell me if the measured protein stability index of RETASLPLLPHQPRIVEMKKGSNG [K7P] reaches 4 or more?
Output line: true (1)

Input line: Could you tell me if the measured protein stability index of RETASLKLLPHQPRIVEMKCGSNG [K20C] reaches 4 or more?
Output line: false (0)

Input line: Could you tell me if the measured protein stability index of RETASLKLLPHQERIVEMKKGSNG [P13E] reaches 4 or more?
Output line: true (1)

Input line: Could you tell me if the measured protein stability index of RMTASLKLLPHQPRIVEMKKGSNG [E2M] reaches 4 or more?
Output line: false (0)

Input line: Could you tell me if the measured protein stability index of SETASLKLLPHQPRIVEMKKGSNG [R1S] reaches 4 or more?
Output line: false (0)

Input line: Could you tell me if the measured protein stability index of RETASLKLLPHQPRLVEMKKGSNG [I15L] reaches 4 or more?
Output line: true (1)

Input line: Could you tell me if the measured protein stability index of RETASLKLLPHQPRIVEMKKGDNG [S22D] reaches 4 or more?
Output line: true (1)

Input line: Could you tell me if the measured protein stability index of RETASLILLPHQPRIVEMKKGSNG [K7I] reaches 4 or more?
Output line: false (0)

Input line: Could you tell me if the measured protein stability index of RETASLKLLPHQPRIVEMKKGSPG [N23P] reaches 4 or more?
Output line: true (1)

Input line: Could you tell me if the measured protein stability index of RETASLKLLPHQYRIVEMKKGSNG [P13Y] reaches 4 or more?
Output line: false (0)

Input line: Could you tell me if the measured protein stability index of RETASLKLLPHQPRIVEMKKGSQG [N23Q] reaches 4 or more?
Output line: true (1)

Input line: Could you tell me if the measured protein stability index of RETASLKLLPHQPRVVEMKKGSNG [I15V] reaches 4 or more?
Output line: false (0)

Input line: Could you tell me if the measured protein stability index of RETASLKLLPHQWRIVEMKKGSNG [P13W] reaches 4 or more?
Output line: false (0)

Input line: Could you tell me if the measured protein stability index of RETASLKLLPHRPRIVEMKKGSNG [Q12R] reaches 4 or more?
Output line: false (0)

Input line: Could you tell me if the measured protein stability index of RETASLGLLPHQPRIVEMKKGSNG [K7G] reaches 4 or more?
Output line: true (1)

Input line: Could you tell me if the measured protein stability index of RETSSLKLLPHQPRIVEMKKGSNG [A4S] reaches 4 or more?
Output line: false (0)

Input line: Could you tell me if the measured protein stability index of RETASLKLFPHQPRIVEMKKGSNG [L9F] reaches 4 or more?
Output line: false (0)

Input line: Could you tell me if the measured protein stability index of RETASLKLLPHQPRIVEMVKGSNG [K19V] reaches 4 or more?
Output line: false (0)

Input line: Could you tell me if the measured protein stability index of RETNSLKLLPHQPRIVEMKKGSNG [A4N] reaches 4 or more?
Output line: false (0)

Input line: Could you tell me if the measured protein stability index of RDTASLKLLPHQPRIVEMKKGSNG [E2D] reaches 4 or more?
Output line: false (0)

Input line: Could you tell me if the measured protein stability index of RETASLKLLSHQPRIVEMKKGSNG [P10S] reaches 4 or more?
Output line: false (0)

Input line: Could you tell me if the measured protein stability index of RETASLKLLPHQFRIVEMKKGSNG [P13F] reaches 4 or more?
Output line: false (0)

Input line: Could you tell me if the measured protein stability index of RETASLKLMPHQPRIVEMKKGSNG [L9M] reaches 4 or more?
Output line: false (0)

Input line: Could you tell me if the measured protein stability index of RETASLKLLPHQDRIVEMKKGSNG [P13D] reaches 4 or more?
Output line: true (1)

Input line: Could you tell me if the measured protein stability index of RETASLSLLPHQPRIVEMKKGSNG [K7S] reaches 4 or more?
Output line: true (1)

Input line: Could you tell me if the measured protein stability index of RETASLKLLIHQPRIVEMKKGSNG [P10I] reaches 4 or more?
Output line: false (0)

Input line: Could you tell me if the measured protein stability index of RETASLKLLPHQPRIVEMKKGING [S22I] reaches 4 or more?
Output line: false (0)
